TGT: SAE1 (Homo sapiens (Human), UniProt Q9UBT2)
Sequence (Q9UBE0 whole entry): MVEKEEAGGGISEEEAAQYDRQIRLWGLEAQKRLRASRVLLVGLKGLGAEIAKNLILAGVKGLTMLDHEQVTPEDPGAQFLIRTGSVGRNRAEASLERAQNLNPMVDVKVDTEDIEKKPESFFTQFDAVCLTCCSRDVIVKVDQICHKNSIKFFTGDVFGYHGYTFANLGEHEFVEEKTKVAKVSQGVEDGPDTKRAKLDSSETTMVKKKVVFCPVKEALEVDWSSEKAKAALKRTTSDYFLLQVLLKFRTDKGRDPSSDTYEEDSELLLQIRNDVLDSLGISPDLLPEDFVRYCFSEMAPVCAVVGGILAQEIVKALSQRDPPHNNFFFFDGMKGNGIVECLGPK
Sequence (Q9UBT2 whole entry): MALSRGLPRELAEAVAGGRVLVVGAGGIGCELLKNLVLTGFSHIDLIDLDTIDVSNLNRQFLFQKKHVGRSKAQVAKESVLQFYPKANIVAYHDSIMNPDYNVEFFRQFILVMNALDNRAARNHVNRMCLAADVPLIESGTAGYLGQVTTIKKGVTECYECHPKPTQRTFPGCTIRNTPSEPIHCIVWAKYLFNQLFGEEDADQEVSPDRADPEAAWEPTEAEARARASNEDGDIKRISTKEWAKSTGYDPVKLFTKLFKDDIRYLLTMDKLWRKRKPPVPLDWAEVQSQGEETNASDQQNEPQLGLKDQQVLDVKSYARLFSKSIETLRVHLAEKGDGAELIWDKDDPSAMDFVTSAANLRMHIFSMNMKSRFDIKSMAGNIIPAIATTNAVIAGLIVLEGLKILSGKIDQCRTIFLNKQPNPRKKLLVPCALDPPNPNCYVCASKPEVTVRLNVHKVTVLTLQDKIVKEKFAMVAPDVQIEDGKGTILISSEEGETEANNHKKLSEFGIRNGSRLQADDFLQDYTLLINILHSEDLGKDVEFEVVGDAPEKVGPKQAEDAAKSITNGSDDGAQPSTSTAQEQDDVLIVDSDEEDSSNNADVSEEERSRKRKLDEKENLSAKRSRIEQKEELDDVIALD
pIC50: −log10 of the molar value.
Item-by-item account of pIC50
OBSERVATION_TYPE: pIC50

# COMPOUND, OP, TEST_RESULT
data = [
    ("CCn1cc(-c2c(F)cccc2[C@@H]2CN(C(=O)/C=C\\CNC)Cc3sc(C#N)c(C)c32)c(C(F)(F)F)n1 [Compound 225]", "=", 7.47),
    ("CCn1cc(-c2ccccc2[C@@H]2CN(C(=O)/C=C/CN(C)OC)Cc3sc(C#N)cc32)c(C(F)(F)F)n1 [Example 11]", "<", 4.60),
    ("[2H]C([2H])([2H])N(C/C=C/C(=O)N1Cc2sc(C#N)cc2[C@H](c2ccccc2-c2cn(CC)nc2C(F)(F)F)C1)C([2H])([2H])[2H] [Example 245]", "=", 5.38),
    ("CCn1cc(-c2ccccc2[C@@H]2CN(C(=O)/C=C/C(C)N(C)C)Cc3sc(C#N)cc32)c(C(F)(F)F)n1 (stereo partly shown) [Compound 235]", "=", 5.38),
    ("CCn1cc(-c2ccccc2[C@@H]2CN(C(=O)/C=C/COC)Cc3sc(C#N)cc32)c(C(F)(F)F)n1 [Example 7]", "=", 5.03),
    ("CCn1cc(-c2ccccc2[C@@H]2CN(C(=O)/C=C/C3CNC3)Cc3sc(C#N)cc32)c(C(F)(F)F)n1 [Example 108]", "=", 4.96),
    ("CCn1cc(-c2ccccc2[C@@H]2CN(C(=O)/C=C/CCNC)Cc3sc(C#N)cc32)c(C(F)(F)F)n1 [Example 45]", "=", 4.64),
]
